Dear all, this message contains GI50 results, target or system M14 (Melanoma).
Please make sure the unit comes right after the number.

// solved cases for GI50 follow
>  <compound>
C=C(C)C1CCC2(CO)CCC3(C)C(CCC4C5(C)CCCNC(C)(C)C5CCC43C)C12 (stereo not drawn)

>  <test_value>
1580 nM

$$$$
>  <compound>
C[C@H]1[C@H](C)CC[C@]2(C(=O)Nc3ccc4ncccc4c3)CC[C@]3(C)C(=CC[C@@H]4[C@@]5(C)CCCNC(C)(C)[C@@H]5CC[C@]43C)[C@H]12

>  <test_value>
1940 nM

$$$$

Qu. System M14 (Melanoma). Read-out GI50. Item `CC1(C)NCCC[C@]2(C)[C@H]3C=CC4=C5C[C@@](C)(CO)CC[C@]5(C)CC[C@@]4(C)[C@]3(C)CC[C@@H]12` . Report value.
Ans. 3910 nM

* * *

Record type: GI50 measurement. Applies to: Renal Cancer subpanel
Express your answer in nM, writing the number without its unit.

# example entries with known answers
>  <compound>
C=C(C)C1CCC2(CO)CCC3(C)C(CCC4C5(C)CCCNC(C)(C)C5CCC43C)C12 (stereo not shown)

>  <tgt>
Renal Cancer subpanel

>  <GI50 [nM]>
1710

$$$$
>  <compound>
CC(C)=C1CCC=C2CC[C@]3(C)[C@H](CC[C@@H]4[C@@]5(C)CCCNC(C)(C)[C@@H]5CC[C@]43C)[C@H]21

>  <tgt>
Renal Cancer subpanel

>  <GI50 [nM]>
1720

$$$$
>  <compound>
CC1(C)CC[C@]23CC[C@]4(C)[C@H](CC[C@@H]5[C@@]6(C)CCCNC(C)(C)[C@@H]6CC[C@]54C)[C@H]2[C@H]1OC3

>  <tgt>
Renal Cancer subpanel

>  <GI50 [nM]>
1670

$$$$

Here is the next item to consider.
Qu. Give the reported value of GI50 for this record: `CC1(C)CC[C@]2(CO)CC[C@]3(C)C(=CC[C@@H]4[C@@]5(C)CCCNC(C)(C)[C@@H]5CC[C@]43C)[C@@H]2C1`
Ans. 5940

* * *

System: NCI/ADR-RES (Ovarian cancer)
protocol_text: NCI-60 screen (SRB, 48 h)
run_conditions: Homo sapiens
Items are presented alongside their recorded GI50.
Write down the numeric answer in nM and omit the unit.

>  <smiles_code>
CC(C)=C1CCC=C2CC[C@]3(C)[C@H](CC[C@@H]4[C@@]5(C)CCCNC(C)(C)[C@@H]5CC[C@]43C)[C@H]21

>  <tgt>
NCI/ADR-RES (Ovarian cancer)

>  <GI50 (nM)>
1840

$$$$
>  <smiles_code>
C=C(C)[C@@H]1CC[C@]2(C)[C@H](CC=C3[C@@H]4[C@@H](C)[C@H](C)CC[C@]4(CO)CC[C@]32C)[C@@]1(C)CCCN

>  <tgt>
NCI/ADR-RES (Ovarian cancer)

>  <GI50 (nM)>
990

$$$$

Consider now this further compound.
Qu. Give the observed GI50 of `C[C@H]1[C@H](C)CC[C@]2(C(=O)Nc3ccc4ncccc4c3)CC[C@]3(C)C(=CC[C@@H]4[C@@]5(C)CCCNC(C)(C)[C@@H]5CC[C@]43C)[C@H]12` for NCI/ADR-RES (Ovarian cancer).
Ans. 1910

* * *

System: panel of approximately 60 cancer cell lines
protocol_text: NCI-60 screen (SRB, 48 h), full panel
run_conditions: Homo sapiens, read-out: LC50 MG_MID60, average over all cell lines
Recorded CC50, one value per entry.
Give your result in µM as a bare value.

>  <smiles_code>
C=C(C)[C@@H]1CC[C@]2(C)[C@H](CC=C3[C@@H]4[C@@H](C)[C@H](C)CC[C@]4(CO)CC[C@]32C)[C@@]1(C)CCCN

>  <test_readout>
CC50

>  <test_value>
17

$$$$

Now for a further compound.
Qu. // fetch CC50 given entry `C=C(C)[C@@H]1CC[C@]2(C(=O)N[C@H](CO)Cc3ccccc3)CC[C@]3(C)[C@H](CC[C@@H]4[C@@]5(C)CCCNC(C)(C)[C@@H]5CC[C@]43C)[C@@H]12`
Ans. 5.62
